# testedTarget: T1, human ROR1 (hROR1) on cells (human, UniProt Q01973 30-937)
# T1 construct: whole, on cells; the cell line is named under assay; also called HEK293T-hROR1; 293T-hROR1
# T1 sequence (Q01973 30-937): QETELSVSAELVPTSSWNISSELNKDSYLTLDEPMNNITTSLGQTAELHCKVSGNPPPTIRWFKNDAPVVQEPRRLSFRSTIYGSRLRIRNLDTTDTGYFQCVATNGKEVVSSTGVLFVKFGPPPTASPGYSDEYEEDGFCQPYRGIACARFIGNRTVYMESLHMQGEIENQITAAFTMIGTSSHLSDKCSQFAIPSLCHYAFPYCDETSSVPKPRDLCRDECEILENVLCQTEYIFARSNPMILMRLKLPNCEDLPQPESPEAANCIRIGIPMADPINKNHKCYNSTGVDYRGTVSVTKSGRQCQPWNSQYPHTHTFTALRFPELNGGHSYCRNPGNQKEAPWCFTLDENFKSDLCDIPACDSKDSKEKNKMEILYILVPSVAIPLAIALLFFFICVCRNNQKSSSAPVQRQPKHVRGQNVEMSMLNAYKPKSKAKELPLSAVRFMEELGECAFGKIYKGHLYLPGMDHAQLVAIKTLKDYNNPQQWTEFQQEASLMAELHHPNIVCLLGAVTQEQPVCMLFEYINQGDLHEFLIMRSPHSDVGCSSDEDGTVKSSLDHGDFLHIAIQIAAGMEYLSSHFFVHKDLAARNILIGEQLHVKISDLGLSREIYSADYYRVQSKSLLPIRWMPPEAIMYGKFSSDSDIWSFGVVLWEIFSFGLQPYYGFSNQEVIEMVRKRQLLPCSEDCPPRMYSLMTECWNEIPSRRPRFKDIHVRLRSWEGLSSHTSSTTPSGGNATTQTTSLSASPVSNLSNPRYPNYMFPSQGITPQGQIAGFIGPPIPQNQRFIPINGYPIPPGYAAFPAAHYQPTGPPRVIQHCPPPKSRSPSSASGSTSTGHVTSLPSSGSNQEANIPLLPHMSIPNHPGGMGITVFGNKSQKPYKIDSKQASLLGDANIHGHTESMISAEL
# experimentDescription: FACS, HEK293T-hROR1 cells; cytometer saturated
Reported MAX(MFI) is given for each of the following binders.
Quick reminder: number only, in MFI, skip the unit.

{"binder": "PR001370 (antibody, V domains shown, fully human IgG1, kappa) VH: EVQLLESGGGVVQPGRSLRLSCAASGFTFSSYGMHWVRQAPGKGLEWVAVKWYDGISQNFADSVKGRFTISRDNSKNTLYLQMNSLRAEDTAVYYCARDLARSFDLWGRGTLVTVSS VL: DIVMTQSPSTLSASVGDRVTITCRASQSINNWLAWYQQKPGKAPKLLIYKASSLESGVPSRFSGSGSGTEFTLTISSLQPDDFATYYCQQYNSYSPMYTFGQGTKVDIKR", "displayUnit": "MFI", "numericReadout": 262000}

Now look at this one.
Request: Suppose we examine the binder PR001358 (antibody, human IgG1, kappa, V domains shown, fully human IgG1, kappa) VH: QVQLVQSGGGVVQPGRSLRLSCAASGFTFSSYAMHWVRQAPGKGLEWVAIMWYDGSNTDYADSVKGRFTISRDTSKNTLFLQMNSLRAEDTAVYYCAREQARSFDLWGRGTLVTVSS VL: DIVMTQSPSTLSASVGDRVTITCRASQSINSWLAWYQQKPGKAPKLLIYKASNLESGVPSRFSGSGSGTEFTLTISSLQPDDFATYYCQQYKSYSPMYTFGQGTKVDIKR ; what MAX(MFI) value has been reported?
Result: 262000
